# Test System: UniProt Q969S2
# Sequence (Q969S2 whole entry): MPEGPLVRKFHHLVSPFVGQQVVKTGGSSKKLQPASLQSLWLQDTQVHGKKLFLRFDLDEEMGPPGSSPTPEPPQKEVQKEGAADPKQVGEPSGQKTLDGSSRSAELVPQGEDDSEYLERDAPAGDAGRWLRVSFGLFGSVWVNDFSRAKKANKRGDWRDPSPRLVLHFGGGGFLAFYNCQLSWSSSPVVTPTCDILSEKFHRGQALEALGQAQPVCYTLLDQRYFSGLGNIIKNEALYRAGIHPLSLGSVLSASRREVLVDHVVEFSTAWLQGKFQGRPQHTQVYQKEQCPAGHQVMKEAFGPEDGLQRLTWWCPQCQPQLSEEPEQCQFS
# Condition Notes: Compound Concentration 10.0 uM, Hit No
Value Kind: inhibition (%)
# output: bare number, implied unit %

Here is how some compounds turned out for inhibition.
Compound	Result
CO[C@H]1CC[C@@H](C(=O)c2ccc3nc4c(cc3c2)CCCO4)CC1	8.38
CC(C)(C)c1ccc2c(c1)CC[C@H]2NC(=O)Nc1cccc2[nH]ncc12	-4.17
CC1=C(C(=O)Nc2cc3cn[nH]c3cc2F)C(c2ccc(C(F)(F)F)cc2)CC(=O)N1 (centres undefined)	3.2

Give me measured inhibition, please, for this compound: CC[C@H](NC(=O)c1c(C)c(-c2ccccc2)nc2ccccc12)c1ccccc1
-1.98

Give me measured inhibition, please, for this compound: O=C(NNS(=O)(=O)c1ccccc1F)c1cc(F)cc(-c2ccccn2)c1
3.34

Give me measured inhibition, please, for this compound: O=S(=O)(c1ccccc1)N(CC(F)(F)F)c1ccc(C(O)(C(F)(F)F)C(F)(F)F)cc1
-6.61

Give me measured inhibition, please, for this compound: Cc1cc(OCCCS(C)(=O)=O)cc(C)c1-c1cccc(COc2ccc3c(c2)OC[C@H]3CC(=O)O)c1
8.25

Give me measured inhibition, please, for this compound: O=C(O)c1ccc(C(=O)N[C@@H](c2ccc(OC(F)(F)F)c(F)c2)c2ncccc2F)nc1
13.9

Give me measured inhibition, please, for this compound: CC1(C)CC(CN2CCC(F)(CNC(=O)c3cc(Cl)cc(Cl)c3)CC2)CCO1 (centres undefined)
6.78

###

# inhibition values compiled below
# Test System: N-glycosylase/DNA lyase (Homo sapiens);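 also: OGG1 cleavage of a quenched duplex DNA oligonucleotide, coupled to APE1 for strand incision, read as fluorescence at 594 nm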
# Condition Notes: Compound Concentration 10.0 uM, Hit No
Where a SMILES comes first, the peptide text is derived from it. [ ]: non-standard residue; d: D form. Arg(Me) = CNC(=N)NCCC[C@H](N)C(=O)O; d3Pal = N[C@H](Cc1cccnc1)C(=O)O; azaGly = NNC(=O)O
# output: bare number, implied unit %

Give me measured inhibition, please, for this compound: O=C(N[C@@H]1CC[C@@H](c2cccc(F)c2F)CN(CC(F)(F)F)C1=O)N1CCC(n2c(=O)[nH]c3ncccc32)CC1
-8.48

Give me measured inhibition, please, for this compound: CC(C)c1ccc(CC(=O)N[C@H](C)c2ccc(OCC(F)(F)F)cn2)cc1
-4.46

Give me measured inhibition, please, for this compound: CNC(=N)NCCC[C@H](NC(=O)[C@H](CC(C)C)NC(=O)NNC(=O)[C@H](Cc1ccccc1)NC(=O)[C@H](CO)NC(=O)[C@H](CC(N)=O)NC(=O)[C@@H](Cc1cccnc1)NC(=O)[C@H](N)Cc1ccc(O)cc1)C(=O)NCC(N)=O (H-[dY][d3Pal]NSF[azaGly]L[Arg(Me)]G-NH2)
9.57

###

# Test System: Single-strand selective monofunctional uracil DNA glycosylase (Homo sapiens) (UniProt Q53HV7)
# Sequence (whole entry): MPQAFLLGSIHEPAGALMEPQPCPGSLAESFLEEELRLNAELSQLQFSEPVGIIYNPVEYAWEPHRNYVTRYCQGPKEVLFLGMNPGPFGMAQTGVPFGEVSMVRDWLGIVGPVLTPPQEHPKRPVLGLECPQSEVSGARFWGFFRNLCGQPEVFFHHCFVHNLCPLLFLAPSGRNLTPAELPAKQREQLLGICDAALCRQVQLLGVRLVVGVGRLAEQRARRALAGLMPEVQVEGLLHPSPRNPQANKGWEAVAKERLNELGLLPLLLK
# Condition Notes: Compound Concentration 10.0 uM, Hit No
Value Kind: inhibition
Answer with the number, then the unit.

Compound	inhibition
CCCc1nc2c(C)cc(-c3nc4ccccc4n3C)cc2n1Cc1ccc(-c2ccccc2C(=O)O)cc1	3.75%

Give me measured inhibition, please, for this compound: CCNC1(C(N)=O)CCN(c2ncnc3c2nc(-c2ccccc2Cl)n3-c2ccc(Cl)cc2)CC1
12.2%

Give me measured inhibition, please, for this compound: Cc1cccc(NC(=O)CN2CCC(c3ccccn3)CC2)c1
0.438%

Give me measured inhibition, please, for this compound: N=C(N)NCCC[C@@H](NC(=O)C(c1ccccc1)c1ccccc1)C(=O)NCc1ccc(CNC(N)=O)cc1
0.0989%

Give me measured inhibition, please, for this compound: O=C1COc2nccc(-c3ccccc3F)c2CN1Cc1cc(C(F)(F)F)cc(C(F)(F)F)c1
-3.96%

Give me measured inhibition, please, for this compound: Cc1cc([C@@H](C)Nc2ccccc2C(=O)O)c2nc(N3CCOCC3)cc(=O)n2c1
20.9%

Give me measured inhibition, please, for this compound: Cn1cc(Nc2nccc(N3CC4CCC(C3)N4C(=O)[C@@H]3CC3(F)F)n2)cn1
8.21%

Give me measured inhibition, please, for this compound: O=C(O)CCCc1cc2cc(Cl)ccc2n1S(=O)(=O)c1ccc2ncsc2c1
23.9%

Give me measured inhibition, please, for this compound: Cn1cc(C(=O)O)c2ccc(N3CCC(OCc4c(-c5c(Cl)cccc5Cl)noc4C4CC4)CC3)cc21
-2.05%

Give me measured inhibition, please, for this compound: CCCNS(=O)(=O)Nc1ncnc(OCCOc2ncc(Br)cn2)c1-c1ccc(Br)cc1
-4.93%

###

# inhibition values compiled below
# Test System: UniProtKB Q96FI4
# Sequence (Q96FI4 whole entry): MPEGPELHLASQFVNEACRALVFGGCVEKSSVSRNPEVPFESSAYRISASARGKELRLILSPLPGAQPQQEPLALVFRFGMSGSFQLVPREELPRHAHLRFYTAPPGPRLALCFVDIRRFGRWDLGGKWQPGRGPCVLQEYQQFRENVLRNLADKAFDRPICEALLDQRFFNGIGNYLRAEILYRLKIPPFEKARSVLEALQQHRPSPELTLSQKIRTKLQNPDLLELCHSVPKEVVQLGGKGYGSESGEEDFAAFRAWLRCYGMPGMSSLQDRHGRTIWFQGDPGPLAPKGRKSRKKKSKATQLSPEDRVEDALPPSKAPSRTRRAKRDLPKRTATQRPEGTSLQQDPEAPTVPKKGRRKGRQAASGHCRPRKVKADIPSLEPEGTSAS
# Condition Notes: Compound Concentration 1.0 uM, Hit No
# output: bare number, implied unit %

Give me measured inhibition, please, for this molecule: O=C(Nc1ccc(-c2ccnc(Nc3ccc(N4CCOCC4)cc3)n2)cc1)[C@@H]1CCCN1
5.95

Give me measured inhibition, please, for this molecule: C[C@@H]1CN(c2cc(-c3n[nH]c4ccc(OC5(C)CC5)cc34)ncn2)C[C@H](C)O1
-2.64

Give me measured inhibition, please, for this molecule: CS(=O)(=O)N1CCCC(NC(=O)[C@H](CCC2CCCCC2)NC(=O)c2ccc(CNC(=O)c3cnc4ccccn34)cc2)C1 (stereo partly specified)
-0.0491

Give me measured inhibition, please, for this molecule: COc1ccccc1Nc1nc(-c2nn(Cc3c(F)cc(OCCCO)cc3F)c3ccccc23)ncc1OC
-4.09

Give me measured inhibition, please, for this molecule: CCc1cc(Nc2nccc(-c3c(-c4ccc(OC)c(C(=O)Nc5c(F)cccc5F)c4)nc4ccccn34)n2)c(OC)cc1N1CCC(N2CCN(S(C)(=O)=O)CC2)CC1
-8.84

Give me measured inhibition, please, for this molecule: C[C@@H]1CN(c2cc(-c3nn(C)c4ccc(OC5(C)CC5)cc34)ncn2)C[C@H](C)O1
-5.67

Give me measured inhibition, please, for this molecule: CC(C)c1cc(Nc2nc(N3CCC[C@H](N)C3)ncc2C(N)=O)cc(C(C)C)n1
-3.69

Give me measured inhibition, please, for this molecule: Cc1ccc(NC(=O)Nc2cc(C(F)(F)F)ccc2F)cc1Nc1ccc2c(c1)NC(=O)/C2=C\c1ccc[nH]1
-7.79

Give me measured inhibition, please, for this molecule: COCCOc1nc(-c2ccc(Cl)nc2)nc2c1CN(C(=O)c1ncn3ccccc13)CC2
-3.17

Give me measured inhibition, please, for this molecule: CN(C)C(=O)Cn1cc(-c2ccc(-c3cncc4ccccc34)cc2)cn1
-4.09

Give me measured inhibition, please, for this molecule: Cc1nc(Cc2cccc(C(F)(F)F)c2)sc1-c1ccc(C(N)=O)nc1
-5.59

###

# Test System: Single-strand selective monofunctional uracil DNA glycosylase (Homo sapiens);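 also: enzymatic SMUG1 assay coupled with APE1, reading fluorescence at 594 nm released when a quenched double-stranded DNA oligonucleotide substrate is cleaved and separated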
# Sequence (whole entry): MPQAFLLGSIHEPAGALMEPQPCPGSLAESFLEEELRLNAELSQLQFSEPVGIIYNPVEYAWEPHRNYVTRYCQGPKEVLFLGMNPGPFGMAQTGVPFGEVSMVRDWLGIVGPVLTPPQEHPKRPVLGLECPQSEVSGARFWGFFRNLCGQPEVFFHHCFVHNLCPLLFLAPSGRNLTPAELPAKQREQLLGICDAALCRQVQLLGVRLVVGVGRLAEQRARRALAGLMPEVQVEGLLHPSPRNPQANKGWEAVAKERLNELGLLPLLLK
# Condition Notes: Compound Concentration 10.0 uM, Hit No
# inhibition values compiled below
# output: bare number, implied unit %

Here is how some molecules turned out for inhibition.
Structure	Test System	inhibition (%)
Cc1nc(NC(=O)N2CCC[C@H]2C(N)=O)sc1-c1ccnc(C(C)(C)C(F)(F)F)c1	Single-strand selective monofunctional uracil DNA glycosylase (Homo sapiens)	16.5
C[C@H](NC(=O)Cc1ccc(-c2ccc3cccnc3n2)cc1)c1ccc(-c2ccc(F)c(C(F)(F)F)c2)cc1	Single-strand selective monofunctional uracil DNA glycosylase (Homo sapiens)	-7.59
CCOc1ccn(-c2ccc(F)cc2)c(=O)c1C(=O)Nc1ccc(Oc2ccnc(N)c2Cl)c(F)c1	Single-strand selective monofunctional uracil DNA glycosylase (Homo sapiens)	30.4

--- query ---
Give me measured inhibition, please, for this molecule: Cc1noc([C@H]2C[C@@H](c3ccc(C(F)(F)F)cc3)CN(C(=O)N3CCS(=O)(=O)C3)C2)n1
5.39

###

# inhibition values compiled below
# Test System: Endonuclease III-like protein 1 (Homo sapiens)
# Sequence (whole entry): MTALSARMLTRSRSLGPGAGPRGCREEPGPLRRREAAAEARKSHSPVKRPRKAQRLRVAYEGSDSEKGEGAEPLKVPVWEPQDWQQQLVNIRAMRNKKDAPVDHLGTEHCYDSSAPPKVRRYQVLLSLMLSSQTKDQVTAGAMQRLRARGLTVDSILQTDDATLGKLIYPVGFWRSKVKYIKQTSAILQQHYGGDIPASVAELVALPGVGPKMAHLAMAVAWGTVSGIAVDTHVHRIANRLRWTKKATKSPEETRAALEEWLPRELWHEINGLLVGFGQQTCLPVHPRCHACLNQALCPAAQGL
# Condition Notes: Compound Concentration 10.0 uM, Hit No
# output: bare number, implied unit %

Here is how some compounds turned out for inhibition.
Compound	Test System	Quantity Unit	inhibition
O=C(O)c1ccccc1S(=O)(=O)NCCCCN1C(=O)c2cccc3cccc(c23)C1=O	Endonuclease III-like protein 1 (Homo sapiens)	%	-8.34
Clc1ccccc1C(c1ccccc1)(c1ccccc1)n1cccn1	Endonuclease III-like protein 1 (Homo sapiens)	%	15.4
CN[C@@H]1Cc2cccc3[nH]c(=O)n(c23)C1	Endonuclease III-like protein 1 (Homo sapiens)	%	21.2
N#CC1(c2ccccn2)CCN(Cc2cc(C(=O)N3CCCC3)c(=O)n3ccccc23)CC1	Endonuclease III-like protein 1 (Homo sapiens)	%	2

Give me measured inhibition, please, for this compound: O=c1c2cccn2c2ccccc2n1CCCN1CCC(c2ccc(Cl)cc2)CC1
6.32

Give me measured inhibition, please, for this compound: CC(C)(N)C(=O)N[C@H](COCc1ccccc1)C(=O)N1CCC2(CC1)CN(S(C)(=O)=O)c1ccccc12
-1.74

Give me measured inhibition, please, for this compound: N[C@@]1(C(=O)O)CO[C@H]2[C@H](C(=O)O)[C@H]21
24.5

Give me measured inhibition, please, for this compound: COc1cc(NC(=O)c2ccc(-c3ccc(Cl)cc3)o2)cc(OC)c1
8.82

Give me measured inhibition, please, for this compound: CCCCCCCCCCCCC/C=C/[C@@H](O)[C@@H](N)COP(=O)([O-])OCC[N+](C)(C)C
-8.51

Give me measured inhibition, please, for this compound: CCCCN(Cc1ccccc1)C(=O)c1ccc(S(=O)(=O)Nc2ccccc2)cc1
2.88

Give me measured inhibition, please, for this compound: CC(C)Oc1ccc(-c2nn([C@@H](C)c3oc4ccc(F)cc4c(=O)c3-c3cccc(F)c3)c3ncnc(N)c23)cc1F
8.46

Give me measured inhibition, please, for this compound: O=[N+]([O-])c1ccc2nc(COCc3nc4ccc([N+](=O)[O-])cc4[nH]3)[nH]c2c1
0.568

Give me measured inhibition, please, for this compound: Cc1cc2c(-c3ccco3)cnc(N[C@@H]3CCN(C)C[C@H]3C(=O)NC3CCCCC3)c2[nH]c1=O
-9.18

Give me measured inhibition, please, for this compound: CCOc1ccc(-n2c([C@@H](C)N(Cc3cccnc3)C(=O)Cc3ccc(F)c(C(F)(F)F)c3)nc3ncccc3c2=O)cc1
5.52

Give me measured inhibition, please, for this compound: C[C@@H](O[C@H]1OCCN(Cc2n[nH]c(=O)[nH]2)[C@H]1c1ccc(F)cc1)c1cc(C(F)(F)F)cc(C(F)(F)F)c1
-1.01

Give me measured inhibition, please, for this compound: CCCN(CCC)CCc1cccc2c1CC(=O)N2
-4.67

Give me measured inhibition, please, for this compound: Cn1cc(-c2ccc3occ(-c4ccccc4-c4ccccc4)c3n2)cn1
-8.28

Give me measured inhibition, please, for this compound: Cc1nc(C(=O)N2CCC[C@H]2Cc2nnc(-c3ccccc3)o2)c(-c2ccccc2F)s1
4.86
